The measurements presented in this section are drawn from patent US12036225B2.

Assay: Phase 2a trial: plasma and fecal concentrations (PK)
Assay type: in vivo, human
Details: human, stool, oral; CDI patients; 450 mg twice daily
Experimental: Plasma levels were drawn at 2 and 4 hours after the first daily ibezapolstat administration on days 1, 5, and 10. Fecal samples were collected at baseline and daily during days 1-10 of ibezapolstat receipt. Plasma and fecal concentrations were assayed by AltaSciences (Laval, Quebec, Canada) and PK analyses were performed by Learn and Confirm Inc. (Montreal, Quebec, Canada).
measured_quantity: concentration at 3 day of therapy (ng/g)
One number for each entry, in ng/g.

# input Which concentration at 3 day of therapy is reported for this molecule? O=c1[nH]c(NCc2ccc(Cl)c(Cl)c2)nc2ncn(CCN3CCOCC3)c12
# output 416000

* * *

experiment: Phase 2a trial: plasma and fecal concentrations (PK); assay type: in vivo, human; conditions: human, plasma, oral; CDI patients; 450 mg twice daily; read-out: plasma levels 4-hour postdose
measured_quantity: concentration at 4 h

# input Which concentration at 4 h is reported for this compound? O=c1[nH]c(NCc2ccc(Cl)c(Cl)c2)nc2ncn(CCN3CCOCC3)c12
# output 0.373 to 0.578 µg/mL

* * *

assay: Phase 2a trial: plasma and fecal concentrations (PK); type: in vivo, human; conditions: human, stool, oral, 450 mg; CDI patients; samples with detectable concentration
measured_quantity: concentration at 38 day (ng/g)
Numbers only, in ng/g.

# input Which concentration at 38 day is reported for this compound? O=c1[nH]c(NCc2ccc(Cl)c(Cl)c2)nc2ncn(CCN3CCOCC3)c12
# output 136000
